These entries and their values trace back to patent US12600728B2.

- Tested on: biotinylated human IL-17A / AF647-labeled human IL-17RA (Homo sapiens, UniProt Q16552)
- Sequence (Q16552 24-155): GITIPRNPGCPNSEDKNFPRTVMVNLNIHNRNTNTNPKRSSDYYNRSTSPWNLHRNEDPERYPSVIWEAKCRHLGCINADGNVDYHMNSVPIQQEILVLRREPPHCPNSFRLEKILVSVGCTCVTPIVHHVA
- Procedure summary: Human IL-17A×IL-17RA TR-FRET assay
- Assay type: binding
- Details: IL17AA FRET/ IL17Rawt IC50, TR-FRET, 5 nM IL-17A, 30 nM IL-17RA
# true (1) = IC50 below 800 nM (exclusive); false (0) = IC50 at/above 800 nM

Solved entries (count: 5):
Compound	Class label
CCn1nccc1C(=O)N[C@H](C(=O)Nc1ccc(-c2c(C)cc[n+]([O-])c2C)cc1)C1CCC(F)(F)CC1	true (1)
Cc1c(-c2ccc(NC(=O)[C@@H](NC(=O)c3ccnn3C)C3CCCCC3)cc2)cc(Cl)c[n+]1[O-]	false (0)
Cc1c(-c2ccc(NC(=O)[C@@H](NC(=O)c3ccnn3C)C3CCC(F)(F)CC3)cc2)cc(Cl)c[n+]1[O-]	false (0)
Cc1c(-c2ccc(NC(=O)C(NC(=O)c3ccnn3C)C3CCCC(F)(F)C3)cc2)c(Cl)cc[n+]1[O-] (stereo not drawn)	true (1)
Cc1c(-c2ccc(NC(=O)[C@@H](NC(=O)c3ccnn3C)C3CCC(F)(F)CC3)cc2F)cc(Cl)c[n+]1[O-]	true (1)

Now let's try a different one.
Prompt: Please determine if Cc1cc[n+]([O-])c(C)c1-c1ccc(NC(=O)C(NC(=O)c2ccnn2C)C2C=C(F)CCC2)cc1 (stereo not drawn) is below 800 nM in terms of IC50.
Completion: false (0)

---

- Tested on: biotinylated human IL-17A / AF647-labeled human IL-17RA (Homo sapiens)
- Procedure summary: Human IL-17A×IL-17RA TR-FRET assay
- Format: binding
- Details: TR-FRET, biotinylated human IL-17A 5 nM, AF647-labeled human IL-17RA 30 nM; read-out: IL17AA FRET/ IL17Rawt IC50
Measure: pIC50
Entry type: numeric. Quantity: pIC50, the -log10 of concentration in molar units.

Prompt: Query (compound): Cc1cc[n+]([O-])c(C)c1-c1ccc(NC(=O)C(NC(=O)c2ccnn2C)C2CCC(C)CC2)cc1 (stereo not shown) ; field requested: pIC50
Completion: 7.62

Prompt: What does the record list as pIC50 for COCCN1CCn2c(ccc2C(=O)N[C@H](C(=O)Nc2ccc(-c3c(C)cc[n+]([O-])c3C)cc2)C2CCCCC2)C1 ?
Completion: 6.35

Prompt: Param item = Cc1cc[n+]([O-])c(C)c1-c1ccc(NC(=O)[C@@H](NC(=O)c2ccc3n2CCN(C)C3)C2CCCCC2)cc1 ; retrieve measured pIC50.
Completion: 6.63

Prompt: May I ask what pIC50 has been recorded for Cc1c[n+]([O-])cc(C)c1-c1ccc(NC(=O)[C@@H](NC(=O)c2ccc3n2CCN(C)C3)C2CCCCCC2)cc1 ?
Completion: 6.79

Prompt: Quick one: pIC50 of CCn1nccc1C(=O)NC(C(=O)Nc1ccc(-c2c(Cl)cc[n+]([O-])c2C)c(F)c1)[C@H]1C[C@@H]2C[C@@H]2C1 (stereo partly shown) ?
Completion: 7.36

Prompt: So what does the record say about pIC50 for Cc1cc[n+]([O-])c(C)c1-c1ccc(NC(=O)[C@@H](NC(=O)c2ccn3c2CN(C)CC3)C2CCCCCC2)cc1 ?
Completion: 6.89

Prompt: Endpoint output: pIC50 of CC(=O)N1CCn2c(ccc2C(=O)N[C@H](C(=O)Nc2ccc(-c3c(C)c[n+]([O-])cc3C)cc2)C2CCCCCC2)C1 . Value?
Completion: 6.74

---

- Tested on: recombinant human IL-17AA (Homo sapiens)
- Procedure summary: IL-6 release from NHDF cells, IL-17AA plus TNF-α stimulation
- Assay type: cell-based
- Details: NHDF cells, IL-17AA 30 pM plus TNF-α 6 pM, 24 hours, IL-6 by ELISA; read-out: IL17AA + TNF IC50 IL-6
Below: a set of entries, each annotated with reported IC50.
Field format: number, assumed nM, no unit text.

Example entries and their recorded answers appear below.
Compound	Measure	Uom	Test result
Cc1cc[n+]([O-])c(C)c1-c1ccc(NC(=O)[C@H](Cc2ccccc2Cl)NC(=O)c2conc2C)cc1	IC50	nM	131
Cc1c(-c2ccc(NC(=O)[C@@H](NC(=O)c3ccc4n3CCN(C)C4)C3CCC(F)(F)CC3)cc2)c(Cl)cc[n+]1[O-]	IC50	nM	59
CCc1nocc1C(=O)N[C@H](C(=O)Nc1ccc(-c2c(C(F)(F)F)cc[n+]([O-])c2C)cc1)[C@H]1CCCC(F)(F)C1	IC50	nM	14
Cc1c(-c2ccc(NC(=O)[C@@H](NC(=O)c3ccnn3C)C3CCCCC3)nc2)c(Cl)cc[n+]1[O-]	IC50	nM	236

Prompt: Fill blank: measured IC50 of the compound Cc1c(-c2ccc(NC(=O)[C@@H](NC(=O)c3ccnn3C)C3CCCCC3)cc2)cc(CO)c[n+]1[O-] is ____.
Completion: 201

Prompt: Fill in the blank: the reported IC50 of Cc1c(-c2ccc(NC(=O)[C@@H](NC(=O)c3ccnn3C)C3CCC(F)(F)CC3)cc2)c(C(F)(F)F)cc[n+]1[O-] is ____.
Completion: 115

Prompt: Which value of IC50 has been reported for Cc1c(-c2ccc(NC(=O)[C@@H](NC(=O)c3ccnn3C)C3CC=C(F)CC3)cc2)c(C(F)(F)F)cc[n+]1[O-] (stereo partly shown) in the records?
Completion: 24

---

Let's look at some molecules and their measured IC50.
- Tested on: biotinylated human IL-17A / AF647-labeled human IL-17RA (Homo sapiens)
- Procedure summary: Human IL-17A×IL-17RA TR-FRET assay
- Assay type: binding
- Details: TR-FRET, 5 nM IL-17A, 30 nM IL-17RA; read-out: IL17AA FRET/ IL17Rawt IC50
I only need the number, in nM, no unit after it.

Study these solved cases before continuing.
Molecule	IC50, nM
Cc1cc[n+]([O-])c(C)c1-c1ccc(NC(=O)C(NC(=O)c2ccc3n2CCN(C)C3)C2CC3CC3C2)cc1 (single isomer, unassigned) [Example 192]	151
CC(=O)N1CCn2c(ccc2C(=O)N[C@H](C(=O)Nc2ccc(-c3c(Cl)cc[n+]([O-])c3C)cc2F)C2CCCCC2)C1	59.9
Cc1nocc1C(=O)N[C@H](C(=O)Nc1ccc(-c2cc(Cl)c[n+]([O-])c2C)c(F)c1)C1CCC(F)(F)CC1	596

Could you now consider this next molecule?
Prompt: What value of IC50 has been recorded for this entry: Cc1c(-c2ccc(NC(=O)[C@@H](NC(=O)c3ccnn3C)[C@H]3CCCC(F)(F)C3)cc2)c(C(F)(F)F)cc[n+]1[O-]
Completion: 54.1

---

- Tested on: recombinant human IL-17AA (Homo sapiens, UniProt Q16552)
- Sequence (Q16552 24-155): as above
- Procedure summary: IL-6 release from NHDF cells, IL-17AA plus TNF-α stimulation
- Format: cell-based
- Details: NHDF cells, IL-17AA 30 pM plus TNF-α 6 pM, 24 hours, IL-6 by ELISA; read-out: IL17AA + TNF IC50 IL-6
Measure: pIC50
Note on units: pIC50 is unitless, being -log10 of a concentration expressed in mol/L.

Solved entries:
Compound	Tested on	Test result
Cc1cc[n+]([O-])c(C)c1-c1ccc(NC(=O)[C@@H](NC(=O)c2ccnn2C)C2CCC(F)(F)CC2)cc1 [Example 32]	recombinant human IL-17AA (Homo sapiens, UniProt Q16552)	7.30
Cn1nccc1C(=O)N[C@H](C(=O)Nc1ccc(-c2c[n+]([O-])ccc2Cl)cc1)C1CCCCC1 [Example 112]	recombinant human IL-17AA (Homo sapiens, UniProt Q16552)	6.79
Cc1c(-c2ccc(NC(=O)[C@@H](NC(=O)c3ccc4n3CCN(C)C4)C3CCCCCC3)cc2F)c(Cl)cc[n+]1[O-] [Example 122]	recombinant human IL-17AA (Homo sapiens, UniProt Q16552)	8.05
Cc1nocc1C(=O)NC(C(=O)Nc1ccc(-c2c(Cl)cc[n+]([O-])c2C)c(F)c1)[C@H]1C[C@@H]2C[C@@H]2C1 (stereo partly drawn) [Example 57]	recombinant human IL-17AA (Homo sapiens, UniProt Q16552)	7.92
Cc1cc[n+]([O-])c(C)c1-c1ccc(NC(=O)[C@@H](NC(=O)c2ccc3n2CCN(C)C3)C2CC=C(F)CC2)cc1 (stereo partly drawn) [Example 128]	recombinant human IL-17AA (Homo sapiens, UniProt Q16552)	7.27

Prompt: Can you look up the measured pIC50 of Cc1c(-c2ccc(NC(=O)[C@@H](NC(=O)c3ccnn3C)C3CC=C(F)CC3)cc2)c(Cl)cc[n+]1[O-] (stereo partly drawn) [Example 55] for me?
Completion: 7.57

Prompt: Recorded pIC50 of Cc1cc[n+]([O-])c(C)c1-c1ccc(NC(=O)[C@@H](NC(=O)c2ccnn2C)C2CCCCCC2)cc1 [Example 41] , please.
Completion: 8.05

Prompt: For the compound Cc1c[n+]([O-])cc(C)c1-c1ccc(NC(=O)[C@@H](NC(=O)c2ccnn2C)[C@H]2CCc3ccccc3C2)cc1 [Example 103] , what pIC50 is on record?
Completion: 7.35

Prompt: Endpoint output: pIC50 of CCc1nocc1C(=O)N[C@H](C(=O)Nc1ccc(-c2c(C)cc[n+]([O-])c2C)cc1)[C@H]1CCCC(F)(F)C1 [Example 30] . Value?
Completion: 7.92

Prompt: Request the reported pIC50 associated with Cc1cc[n+]([O-])c(C)c1-c1ccc(NC(=O)[C@@H](NC(=O)c2conc2C)[C@@H]2CC=C(F)CC2)cc1 [Example 29]
Completion: 7.33

Prompt: Endpoint output: pIC50 of Cc1cc[n+]([O-])c(C)c1-c1ccc(NC(=O)[C@@H](NC(=O)c2ccoc2C)C2CCCCC2)cc1 [Example 53] . Value?
Completion: 7.07

Prompt: # input compound: COCc1nocc1C(=O)NC(C(=O)Nc1ccc(-c2c(C)cc[n+]([O-])c2C)cc1)C1CCC(C(F)(F)F)CC1 (stereo not drawn) [Example 25] ; wanted: its pIC50
Completion: 7.16

Prompt: I would be grateful if you could share the reported pIC50 for Cc1cc[n+]([O-])c(C)c1-c1ccc(NC(=O)[C@@H](NC(=O)c2ccnn2C(C)C)C2CCCCCC2)cc1 [Example 40] .
Completion: 8.70

Prompt: Which pIC50 value is on record for Cc1cc[n+]([O-])c(C)c1-c1ccc(NC(=O)[C@@H](NC(=O)c2ccnn2C2CC2)C2CCCCC2)cc1 [Example 94] ?
Completion: 7.33

Prompt: So what does the record say about pIC50 for Cc1c(-c2ccc(NC(=O)[C@@H](NC(=O)c3ccnn3C)C3CCCCC3)cc2F)c(Cl)cc[n+]1[O-] (single isomer, unassigned) [Example 2a] ?
Completion: 7.43

Prompt: May I ask what pIC50 has been recorded for Cc1c[n+]([O-])cc(C)c1-c1ccc(NC(=O)[C@@H](NC(=O)c2ccc3n2CCNC3)C2CCCCCC2)cc1 [Example 116] ?
Completion: 6.93

Prompt: Entry Cc1cc[n+]([O-])c(C)c1-c1ccc(NC(=O)[C@@H](NC(=O)c2ccn3c2CN(C)CC3)C2CCCCCC2)cc1 [Example 119] : reported pIC50 = ?
Completion: 7.82
